experiment: chemical genetic growth profiling, strain panel (AID 1159580);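 also: tested at 20 µM; growth read once vehicle control cultures reached saturation at 30 °C; 1 = growth at the plate median or of vehicle wells; lower values mean less growth of the strain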; conditions: S. cerevisiae deletion strains, growth OD, locus YDR392W, strain spt3, hits give low values
The campaign covered roughly 5,500 compounds. About 2,000 (36%) were called active. About 18% were inconclusive and are not listed. The list shows a part of the results.
Exercise: state measured normalized growth for each of the compounds provided.

Query: Looking for the measured normalized growth of O=c1oc2cc(O)ccc2s1 , can you help?
Result: 0.953 (inactive)

Query: normalized growth; subject: COc1cc(C(=O)NCCCCCC(=O)O)cc(OC)c1OC
Result: 0.983 (inactive)

Query: What value of normalized growth has been reported for the following compound? CC(C)(C#N)O[C@@H]1O[C@H](CO)[C@@H](O)[C@H](O)[C@H]1O
Result: 1.02 (inactive)

Query: If you can, please state the reported normalized growth value of CC(C)CCCC1(C)C=Cc2c(O)c3c(c(CCC(C)C)c2O1)OC12C(CC4CC1C(C)(C)OC2(CCC(C)C(=O)O)C4O)C3=O (stereo unspecified) .
Result: 0.925 (inactive)

Query: Which normalized growth value is on record for FC(F)(F)c1ccccc1-n1ccnc1 ?
Result: 0.993 (inactive)

Query: Please give the measured normalized growth for this compound: CCC(C)C(NC)C(=O)O (stereo unspecified)
Result: 0.986 (inactive)
